test system: MOLM14; test: cell viability relative to vehicle control; higher = less cytotoxic; settings: 10 µM; SRSF2 genotype: SRSF2 P95H/wt;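 further: after 48 h exposure read by CellTiter-Glo luminescence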
Where a name gives a salt, the structure may show the parent alone.
Recorded measurements of cell viability, one per entry
measuredProperty: cell viability (%)

1) Cc1ccc(C=O)o1 [5-Methyl furfural]	99.1
2) CC1(C)CC[C@]2(C(=O)O)[C@H](O)C[C@]3(C)C(=CC[C@@H]4[C@@]5(C)CC[C@H](O)[C@@](C)(C=O)[C@@H]5CC[C@]43C)[C@@H]2C1 [Quillaic acid]	84.6
3) CO/N=C(\C(=O)N[C@@H]1C(=O)N2C(C(=O)[O-])=C(C[n+]3cccc4c3CCCC4)CS[C@H]12)c1csc(N)n1 [Cefquinome sulfate]	86.3
4) O=C(O)CCCc1ccccc1 [Sodium Phenylbutyrate]	96.9
5) CC(C(=O)O)c1cccc(Oc2ccccc2)c1 (stereo not given) [Fenoprofen calcium hydrate]	95.1
6) CC(C)=CCCC(C)(O)C1CCC2(C)C1C(O)CC1C3(C)CCC(O)C(C)(C)C3CCC12C [(20S)-Protopanaxadiol]	102
7) CC1=C[C@]2(O)O[C@@]3(CC2=C(C)C)[C@@H](C)CC[C@@H]13 [Curcumenol]	102
8) CCCOc1ccc2[nH]c(NC(=O)OC)nc2c1 [Oxibendazole]	10.9
9) CCc1ccc(CCOc2ccc(CC3SC(=O)NC3=O)cc2)nc1 (stereo not given) [Pioglitazone hydrochloride (Actos)]	96.4
10) CO/N=C(\C(=O)N[C@@H]1C(=O)N2C(C(=O)[O-])=C(C[n+]3ccn4ncccc43)CS[C@H]12)c1nsc(N)n1 [Cefozopran hydrochloride]	99.4
11) CC(C)=CCC[C@](C)(O[C@@H]1O[C@H](CO)[C@@H](O)[C@H](O)[C@H]1O)[C@H]1CC[C@]2(C)[C@@H]1[C@H](O)C[C@@H]1[C@@]3(C)CC[C@H](O)C(C)(C)[C@@H]3[C@@H](O[C@@H]3O[C@H](CO)[C@@H](O)[C@H](O)[C@H]3O[C@@H]3OC[C@@H](O)[C@H](O)[C@H]3O)C[C@]12C [Notoginsenoside R1]	106
12) CC(CNC(=O)c1cccnc1)NC(=O)c1cccnc1 (stereo not given) [Nicaraven]	101
13) O=c1ccc2ccc(O)cc2[nH]1 [7-Hydroxycarbostyril]	95
14) CC(C)c1c(-c2ccccc2)nc2c(C#N)c[nH]n2c1=O	97.8
15) O=C1C2=C(CCN(Cc3ccccc3)C2)N2CCN=C2N1Cc1ccc(C(F)(F)F)cc1	31.1
